assay: soluble on expression in E. coli; label from the status in PepcDB or PDB records
Property Measured: soluble on expression in E. coli

{"columns": ["Sequence Chain", "Property Measured", "Result"],
 "data": [
  ["MKGNFVVSKEDWSLHRKGYDDQKRHQEKVKEAIKNNLPDLITEESIIMSNGRDVIKIPIRSLDEYKIRYNYEKNKHVGQGNGDSQVGDVVARDGSGEGQGPGKGQGAGDLPGQDYYEAEVSLMEIEEAFFSQLELPNLQRKELDQNVTQHIEFNDIRRTGLMGNIDKKRTMLAAFKRNAMNGKPGFYPIYREDLKFKTWNEVVKPESKAVVLAMMDTSGSMGMWEKYMARSFFFWMTRFLRTKYETVEIAFIAHHTEAKVVTEEEFFTKGESGGTICSSAYRKALELIETKYSPSRYNIYPFHFSDGDNLTSDNARCVKLVQELMKVSNMFGYGEVNQYNRHSTLMSAYRNIKDEKFRYYILKQKSDVFHAMRTFFRKEESKQLV", "soluble on expression in E. coli", "not soluble"],
  ["GPGSMMREAGRQRRRNADSDESSSEDEQQQTTTTVQETTAAAPPARVRAKAPAAAVVSAPSMTLHADPTATQVTAPSAVSAETADSEGGSNEDAPSSAAAAAPPNEFSEEMEAIDYDALTYAALLDIMNRASRPVIEELMAQREQQVESTMQQQQNQRVERFLDVATTSSATAAEANGSSAEEEAAEGYRYNTMLTRLFEALNRNNEGSAMTERNQLPVPILERMGKKKTVIANFGRICDAFHRPMEDVKDFIEKELSIRGNLDSNNALILKFEIRKQTDFDRVLIKYLDEYVKCNSCHRIDTTLTKDGRRLELRCNVCTATRTVTAAGTATFSAQIEKRSRQRAAMIL", "soluble on expression in E. coli", "soluble"],
  ["MGSDKIHHHHHHMLLRKDEVFYIDLPRKIEKEEKVKEEKTKENAAEEIQRIEKMREKILSEAQEEARKIIEGARKDAEEILSNASSEAEALKLEAKKVLEEAKTMKNDFQKYILALKEKIQKQVNQRIEEILPELLDILRILFKKILEKEMDESTVERKLRSALSKVVGIKNVKIRINPEDAKKLDLSEVSKETLIPDPNVERGGVIVETDFGILDKTFSHQWELVEDIFEEVVGFEGHPERAEKEVE", "soluble on expression in E. coli", "not soluble"],
  ["MQLLITGGTGLIGRHLIQRLQLLSHHITVLTRDPERARGVLGNQVEYWSTLSNITSLNDFDGVINLAGEPIADKRWTPQQKQRLAQSRWSITEQLATLIKASSEPPTVFISGSAVGYYGDQGEALVTEGESPVDEFTHHLCTRWEALAQSAESDKTRVCLLRTGIVLSAQGGALAKMLPIFRLGLGGPMGSGKQYMPWIHIDDMVNGIIYLLDQPILRGPFNMVAPYPVHNEQFSAMLAHVLDRPGFLRAPAFAMKLLMGEASTLVLGGQRAIPQRLEAAGFGFRFFELEEALQDVTKKPGLEHHHHHH", "soluble on expression in E. coli", "soluble"],
  ["RVEVGGSGDAAAVLGLGAVLQGQGQGTSPSPSGLRPQPEAALPPLERLPKPVLVQVASRCRRNDSRSPTHRKITRGAVGLFHPQLYLSGGNCIECGNEMMSRGKFERLAGTATAKWHVSIKVLPSGVTLGKWLQQHGLPILQGEPRQWRRPRCPCATSCAARCRRASNRRK", "soluble on expression in E. coli", "not soluble"]
]}

For reference, reported soluble on expression in E. coli for `FNKDGKFKIVQFTDVHFKYGNPASDVALERIGEVLDAEHPDLVIFTGDVVYSSPADKGMLQVLGQVERRHLPFVVTFGNHDNEQGKTRAELYDLIRGVAGNLLPDRGASPSPDYILTMKSSADASKDAALLYCMDSHSYSSLKDVDGYAWLTFGQVSWYRAQSAAYTARNGGKPYPALAFFHIPLPEYNEAAANENAILRGTRMEKACAPQLNTGMFAAMKEAGDVMGVFVGHDHDNDYAVMWKNILLAYGRFTGGNTEYNHLPNGARVIVLNEGTRTFETWIRQKGGVVDSTSYPSDYVKDDWRKR` stands at not soluble

For reference, reported soluble on expression in E. coli for `MGHHHHHHSHELEALSQDPRRYEEWKWFRCPTLLEVLEQFPSVALPAPLLLTQLPLLQPRYYSVSSAPSTHPGEIHLTVAVLAYRTQDGLGPLHYGVCSTWLSQLKPGDPVPCFIRGAPSFRLPPDPSLPCILVGPGTGIAPFRGFWQERLHDIESKGLQPTPMTLVFGCRCSQLDHLYRDEVQNAQQRGVFGRVLTAFSREPDNPKTYVQDILRTELAAEVHRVLCLERGHMFVCGDVTMATNVLQTVQRILATEGDMELDEAGDVIGVLRDQQRYHEDIFGLTLRTQEVTSRI` stands at not soluble

For reference, reported soluble on expression in E. coli for `MAKELCFEGITLKAFDEQYRSAINDFDLNERQQIYSSLPKEVIDDAINDVDRIANVAINDKNEVVGFFVLHRYYQHEGYDTPENVVYIRSLSINEKYQGFGYGTKIMMSLPQYVQGVFPDFNHLYLVVDAENDNAWNLYERAGFMHTATKEEGPIGKERLYYLDLDSKHVSSLKLEEESRSEVTNVHIINLMIDGQKVGFIALEQIGERMNIAAIEVDKSYRFNGIGSSALRQLPTYLRKNYDNLNVITMILFGENNDFKPLCLNSNFVEIEQTDDYVVFEKYLNY` stands at not soluble

For reference, reported soluble on expression in E. coli for `GSMIKLFSLKQQKKEEEKGSSKKASAAQLRIQKDINELNLPKTCDISFSDPDDLLNFKLVICPDEGFYKSGKFVFSFKVGQGYPHDPPKVKCETMVYHPNIDLEGNVALNILREDWKPVLTINSIIYGLQYLFLEPNPEDPLNKEAAEVLQNNRRLFEQNVQRSMRGGYIGSTYFERCLK` stands at soluble

For reference, reported soluble on expression in E. coli for `MNYSLKQLKVFVTVAQEKSFSRAGERIGLSQSAVSHSVKELENHTGVRLLDRTTREVVLTDAGQQLALRLERLLDELNSTLRDTGRMGQQLSGKVRVAASQTISAHLIPQCIAESHRRYPDIQFVLHDRPQQWVMESIRQGDVDFGIVIDPGPVGDLQCEAILSEPFFLLCHRDSALAVEDYVPWQALQGAKLVLQDYASGSRPLIDAALARNGIQANIVQEIGHPATLFPMVAAGIGISILPALALPLPEGSPLVVKRITPVVERQLMLVRRKNRSLSTAAEALWDVVRDQGNALMAGREGDPLYQI` stands at soluble
